- systemTested: human Yes1 enzyme (Homo sapiens, UniProt P07947)
- Construct: made in house
- Sequence (P07947 whole entry): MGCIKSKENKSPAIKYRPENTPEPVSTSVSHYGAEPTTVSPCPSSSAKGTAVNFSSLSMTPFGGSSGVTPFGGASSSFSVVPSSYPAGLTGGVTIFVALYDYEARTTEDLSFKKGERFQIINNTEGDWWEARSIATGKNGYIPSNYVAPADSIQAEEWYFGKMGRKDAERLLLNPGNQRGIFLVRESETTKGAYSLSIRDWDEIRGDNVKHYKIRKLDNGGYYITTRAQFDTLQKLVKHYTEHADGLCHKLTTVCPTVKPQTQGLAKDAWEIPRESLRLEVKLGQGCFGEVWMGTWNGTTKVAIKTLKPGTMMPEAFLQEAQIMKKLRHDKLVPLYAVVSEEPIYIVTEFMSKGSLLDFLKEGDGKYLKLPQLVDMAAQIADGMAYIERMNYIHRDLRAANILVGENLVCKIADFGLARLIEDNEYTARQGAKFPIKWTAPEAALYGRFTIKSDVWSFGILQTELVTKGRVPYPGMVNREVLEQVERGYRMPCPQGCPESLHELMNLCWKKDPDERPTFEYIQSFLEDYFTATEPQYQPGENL
- testName: Yes1 enzyme inhibitory activity (time-resolved fluorometry, biotinylated peptide phosphorylation)
- Format: biochemical
- conditionDescription: biotinylated peptide phosphorylation, read-out: YES_IC50
pIC50: −log10 of the molar value.
measure: pIC50

As a guide, the following entries are already answered.
Cc1cc2cc(C(=O)c3cnn(-c4ccc(Oc5ccccc5F)cc4C)c3N)[nH]c2cc1N1CCCS1(=O)=O	9.03
Cc1cc(Oc2ccccc2F)ncc1-n1ncc(C(=O)c2cc3cc(F)c(NS(=O)(=O)CC(=O)N4CCCC4)cc3[nH]2)c1N	8.55

P = Cc1cc(Oc2ccccc2F)ccc1-n1ncc(C(=O)c2cc3cc(F)c(N4C(=O)N[C@@H](C)C4=O)cc3[nH]2)c1N
Q = Cc1cc(Oc2ccccc2F)cc(F)c1-n1ncc(C(=O)c2cc3cc(OCC(F)F)c(N4CCOC4=O)cc3[nH]2)c1N
Incoming: Which item exceeds the other in pIC50, P or Q ? Mark your selection by writing its label.
Outgoing: P
(P: 9.14, Q: 8.89)

The origin of these recorded values is patent US10479780B2.
